Biological target: Macrophage colony-stimulating factor 1 receptor (Homo sapiens)
Details: at 1 µM
result_type: residual activity

[[record]]
compound = "O=C1Nc2cc(Br)ccc2/C1=C1/Nc2ccccc2/C1=N\\O"
target_or_test_system = "Macrophage colony-stimulating factor 1 receptor (Homo sapiens)"
result_type = "residual activity"
test_value = "5%"

[[record]]
compound = "CC(=O)O/N=C1\\C(=C2\\C(=O)Nc3cc(Br)ccc32)Nc2ccccc21"
target_or_test_system = "Macrophage colony-stimulating factor 1 receptor (Homo sapiens)"
result_type = "residual activity"
test_value = "33%"

[[record]]
compound = "O=C1Nc2ccccc2/C1=C1/Nc2ccccc2/C1=N\\OCCC(O)CO (stereo unspecified)"
target_or_test_system = "Macrophage colony-stimulating factor 1 receptor (Homo sapiens)"
result_type = "residual activity"
test_value = "1%"

[[record]]
compound = "c1ccc2c(-c3ccncc3)c[nH]c2c1"
target_or_test_system = "Macrophage colony-stimulating factor 1 receptor (Homo sapiens)"
result_type = "residual activity"
test_value = "110%"

[[record]]
compound = "Nc1ccc2ncnc(NCCc3ccc(Oc4ccccc4)cc3)c2c1"
target_or_test_system = "Macrophage colony-stimulating factor 1 receptor (Homo sapiens)"
result_type = "residual activity"
test_value = "72%"

[[record]]
compound = "C[C@@H](N)[C@H]1CC[C@H](C(=O)Nc2ccncc2)CC1"
target_or_test_system = "Macrophage colony-stimulating factor 1 receptor (Homo sapiens)"
result_type = "residual activity"
test_value = "98%"

[[record]]
compound = "O=C1c2ccccc2-[n+]2ccc3c([nH]c4ccccc43)c21"
target_or_test_system = "Macrophage colony-stimulating factor 1 receptor (Homo sapiens)"
result_type = "residual activity"
test_value = "68%"

[[record]]
compound = "Cn1cnc2cc3c(Nc4cccc(Br)c4)ncnc3cc21"
target_or_test_system = "Macrophage colony-stimulating factor 1 receptor (Homo sapiens)"
result_type = "residual activity"
test_value = "94%"

[[record]]
compound = "COc1cccc(-c2cc(=O)c3ccccc3o2)c1N"
target_or_test_system = "Macrophage colony-stimulating factor 1 receptor (Homo sapiens)"
result_type = "residual activity"
test_value = "114%"

[[record]]
compound = "O=c1cc(-c2cccc3c2Sc2ccccc2S3)oc(N2CCOCC2)c1"
target_or_test_system = "Macrophage colony-stimulating factor 1 receptor (Homo sapiens)"
result_type = "residual activity"
test_value = "101%"

[[record]]
compound = "O=C(Nc1cccc(Nc2nccc(Nc3cccc(C(F)(F)F)c3)n2)c1)C1CC1"
target_or_test_system = "Macrophage colony-stimulating factor 1 receptor (Homo sapiens)"
result_type = "residual activity"
test_value = "14%"


---

Target: Serine/threonine-protein kinase Nek3 (Homo sapiens);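 also: residual NEK3 kinase activity given as percent of control, assayed in 8 mM MOPS buffer pH 7.0 containing 0.2 mM EDTA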
Details: at 1 µM
Description: Millipore: Percentage of residual kinase activity of NEK3 at 1uM relative to control. Control inhibitor: Phosphoric acid* at 0.3uM. Buffer: 8 mM MOPS pH 7.0, 0.2 mM EDTA
result_type: residual activity (%)

[[record]]
structure_smiles = "N#CCCc1ccc2c(c1)-c1[nH]c3ccc([N+](=O)[O-])cc3c1CC(=O)N2"
result_type = "residual activity"
measure_unit = "%"
test_value = 79

[[record]]
structure_smiles = "Cn1nc2c3c(cccc31)C(=O)c1ccccc1-2"
result_type = "residual activity"
measure_unit = "%"
test_value = 74

[[record]]
structure_smiles = "Cc1nc(-c2ccccc2)c(-c2ccncc2)o1"
result_type = "residual activity"
measure_unit = "%"
test_value = 102

[[record]]
structure_smiles = "CC[n+]1c(/C=C/N(C)c2ccccc2)n(-c2ccccc2)c2ccc(-c3nc4ccccc4s3)cc21"
result_type = "residual activity"
measure_unit = "%"
test_value = 116

[[record]]
structure_smiles = "N#Cc1cnc2cnc(NCc3cccnc3)cc2c1Nc1ccc(F)c(Cl)c1"
result_type = "residual activity"
measure_unit = "%"
test_value = 37

[[record]]
structure_smiles = "Cn1cc(/C=C2\\C(=O)Nc3ccc(S(N)(=O)=O)cc32)c2ccccc21"
result_type = "residual activity"
measure_unit = "%"
test_value = 72

[[record]]
structure_smiles = "O=C1Nc2ccc(Br)cc2/C1=C\\c1cc2c([nH]1)CCCC2"
result_type = "residual activity"
measure_unit = "%"
test_value = 102

[[record]]
structure_smiles = "CC(C)n1cnc2/c(=N/c3cccc(Cl)c3)nc(NCCO)[nH]c21"
result_type = "residual activity"
measure_unit = "%"
test_value = 76

[[record]]
structure_smiles = "CCN(CC)CCCCN1c2ccccc2Oc2ccc(Cl)cc21"
result_type = "residual activity"
measure_unit = "%"
test_value = 110

[[record]]
structure_smiles = "COc1ccc(S(=O)(=O)N(CCO)c2ccccc2CN(C)C/C=C/c2ccc(Cl)cc2)cc1"
result_type = "residual activity"
measure_unit = "%"
test_value = 80


---

Biological target: Tyrosine-protein kinase Lyn (Homo sapiens)
Conditions: at 1 µM
Label 0 if residual activity falls below 30%; label 1 in every other case.

[[record]]
compound = "O=C(Nc1cccc(Nc2nccc(Nc3cccc(C(F)(F)F)c3)n2)c1)C1CC1"
category = 1

[[record]]
compound = "COc1cc2ncnc(Nc3ccc(NC(=O)c4ccccc4)cc3)c2cc1OC"
category = 1

[[record]]
compound = "O=C1Nc2ccccc2/C1=C1/Nc2ccccc2/C1=N\\OCCC(O)CO (stereo not given)"
category = 0

[[record]]
compound = "Oc1n[nH]c2nnc(-c3c(-c4ccccc4)nn4ccccc34)cc12"
category = 1

[[record]]
compound = "Cc1cncc2cccc(S(=O)(=O)N3CCCN(C(=O)CN)C[C@H]3C)c12"
category = 1

[[record]]
compound = "COc1cccc(-c2cc(=O)c3ccccc3o2)c1N"
category = 1

[[record]]
compound = "Nc1n[nH]c2nnc(-c3c(-c4ccccc4)nn4ccccc34)cc12"
category = 1

[[record]]
compound = "CCN(CC)C(=O)c1ccc(Nc2nc(OCC3CCCCC3)c3nc[nH]c3n2)cc1"
category = 0

[[record]]
compound = "CO[C@H]1[C@@H](OC)C[C@H](C)[C@@H](OC)C2=CC(=O)C=C(NC(=O)/C(C)=C/C=C/[C@H](OC)[C@@H](OC(N)=O)/C(C)=C/[C@@H]1C)C2=O"
category = 1

[[record]]
compound = "Cc1nc(-c2ccccc2)c(-c2ccncc2)o1"
category = 0


---

// reported residual activity for each item listed
Target: cAMP-dependent protein kinase catalytic subunit alpha (Homo sapiens) (UniProt P17612)
Details: at 1 µM
result_type: residual activity (%)

[[record]]
structure_smiles = "CO[C@H]1C[C@@H]2CC[C@@H](C)[C@@](O)(O2)C(=O)C(=O)N2CCCC[C@H]2C(=O)O[C@H]([C@H](C)C[C@@H]2CC[C@@H](O)[C@H](OC)C2)CC(=O)[C@H](C)/C=C(\\C)[C@@H](O)[C@@H](OC)C(=O)[C@H](C)C[C@H](C)/C=C/C=C/C=C/1C"
test_value = 112

[[record]]
structure_smiles = "O=C1Nc2ccc(Br)cc2/C1=C\\c1cc2c([nH]1)CCCC2"
test_value = 108

[[record]]
structure_smiles = "O=C1NC(=O)/C(=C/c2ccc3c(c2)OC(F)(F)O3)S1"
test_value = 102

[[record]]
structure_smiles = "CCN(CC)CCCCN1c2ccccc2Oc2ccc(Cl)cc21"
test_value = 95

[[record]]
structure_smiles = "O=C1NC(=O)c2cc(Nc3ccc(F)cc3)c(Nc3ccc(F)cc3)cc21"
test_value = 100

[[record]]
structure_smiles = "O=[N+]([O-])c1ccc(-c2nc(-c3ccc(F)cc3)c(-c3ccncc3)[nH]2)cc1"
test_value = 97

[[record]]
structure_smiles = "N#Cc1cnc2cnc(NCc3cccnc3)cc2c1Nc1ccc(F)c(Cl)c1"
test_value = 5

[[record]]
structure_smiles = "COc1cc2ncnc(Nc3ccc(Oc4ccccc4)cc3)c2cc1OC"
test_value = 92

[[record]]
structure_smiles = "COc1cccc(-c2cc(=O)c3ccccc3o2)c1N"
test_value = 96

[[record]]
structure_smiles = "CCOc1cc2ncnc(Nc3cccc(Br)c3)c2cc1OCC"
test_value = 73

[[record]]
structure_smiles = "CN(C)CCCn1cc(C2=C(c3c[nH]c4ccccc34)C(=O)NC2=O)c2ccccc21"
test_value = 60

[[record]]
structure_smiles = "Oc1ccc(Nc2nc(-c3ccc(Cl)cc3)cs2)cc1"
test_value = 100

[[record]]
structure_smiles = "CO[C@H]1[C@@H](OC)C[C@H](C)[C@@H](OC)C2=CC(=O)C=C(NC(=O)/C(C)=C/C=C/[C@H](OC)[C@@H](OC(N)=O)/C(C)=C/[C@@H]1C)C2=O"
test_value = 79

[[record]]
structure_smiles = "Cc1cccc(-c2[nH]c(C(C)(C)C)nc2-c2ccc3c(c2)OCO3)n1"
test_value = 87

[[record]]
structure_smiles = "CN(C)c1ccc(/C=C2\\C(=O)Nc3ccccc32)cc1"
test_value = 89

[[record]]
structure_smiles = "Cc1cc2ncc(-c3ccccc3)nc2cc1C"
test_value = 86

[[record]]
structure_smiles = "CNc1cc2c(Nc3cccc(Br)c3)ncnc2cn1"
test_value = 102

[[record]]
structure_smiles = "Cn1cnc2cc3c(Nc4cccc(Br)c4)ncnc3cc21"
test_value = 99

[[record]]
structure_smiles = "CC(=O)O/N=C1\\C(=C2\\C(=O)Nc3cc(Br)ccc32)Nc2ccccc21"
test_value = 86

[[record]]
structure_smiles = "Cc1nc(-c2ccccc2)c(-c2ccncc2)o1"
test_value = 94


Each recorded value in this set is attributed to ChEMBL document CHEMBL2218924.
